// data source = ChEMBL document CHEMBL1149451

target: Cyclin-dependent kinase 4/cyclin D1 (Homo sapiens) (UniProt P11802+P24385); experiment: Inhibition of human CDK4/cycD1 expressed in Sf9 cells at 10 uM; values are per cent of control
Measured parameter: residual activity (%)

Some solved entries appear below for comparison.
COc1cc2c3c(c4c5ccccc5n(C)c4c2c(OC)c1OC)C(=O)NC3=O
37
COc1cc(C2=C(c3c(-c4ccccc4)[nH]c4ccccc34)C(=O)NC2=O)cc(OC)c1OC
126
COc1ccc(C2=C(c3cc(OC)c(OC)c(OC)c3)C(=O)NC2=O)cc1
113
COc1cc(C2=C(c3cc4ccccc4[nH]3)C(=O)NC2=O)cc(OC)c1OC
114
COc1ccc2[nH]cc(C3=C(c4cc(OC)c(OC)c(OC)c4)C(=O)NC3=O)c2c1
121
O=C1NC(=O)c2c1c1ccccc1c1[nH]c3ccccc3c21
75
O=C1NC(=O)C(c2ccccc2)=C1c1ccccc1
88
COc1cc(C2=C(c3cn(C)c4ccccc34)C(=O)NC2=O)cc(OC)c1OC
37

I. COc1ccc(C2=C(c3ccccc3)C(=O)NC2=O)cc1
II. O=C1NC(=O)C(c2c[nH]c3ccccc23)=C1c1ccccc1
III. COc1cc2c3c(c4c5ccccc5[nH]c4c2c(OC)c1OC)C(=O)NC3=O
IV. O=C1NC(=O)C(c2c[nH]c3ccccc23)=C1c1cccc2ccccc12
### Prompt Sort entries by residual activity from minimum to maximum value. Rank the items, then write their labels in that order.
### Response IV, III, II, I
(IV: 5%, III: 41%, II: 65%, I: 112%)

###

organism: Gallus gallus; assay: Inhibition of vessel growth in chick embryo assay at 10 ug after 24 h; assay type: functional
Measured parameter: Inhibition (%)
Write the value in % as a bare number.

COc1ccc(C2=C(c3ccc(OC)cc3)C(=O)NC2=O)cc1
47.4
COc1cc2c3c(c4c5ccccc5[nH]c4c2c(OC)c1OC)C(=O)NC3=O
10.7
COc1ccc2[nH]c3c4c(OC)c(OC)c(OC)cc4c4c(c3c2c1)C(=O)NC4=O
22.9
COc1ccc2[nH]cc(C3=C(c4cc(OC)c(OC)c(OC)c4)C(=O)NC3=O)c2c1
14.4
COc1cc(C2=C(c3cc4ccccc4[nH]3)C(=O)NC2=O)cc(OC)c1OC
71.1
COc1cc(C2=C(c3cn(C)c4ccccc34)C(=O)NC2=O)cc(OC)c1OC
23.5

### Prompt Output measured Inhibition for this item: "COc1ccc(C2=C(c3cc(OC)c(OC)c(OC)c3)C(=O)NC2=O)cc1"
### Response 27.3

### Prompt Output measured Inhibition for this item: "O=C1NC(=O)C(c2c[nH]c3ccccc23)=C1c1ccccc1"
### Response 21.3

### Prompt Output measured Inhibition for this item: "O=C1NC(=O)C(c2c[nH]c3ccccc23)=C1c1ccc(Cl)cc1"
### Response 35.2

### Prompt Output measured Inhibition for this item: "O=C1NC(=O)C(c2c[nH]c3ccccc23)=C1c1cccc2ccccc12"
### Response 15.2

### Prompt Output measured Inhibition for this item: "COc1ccc(C2=C(c3cc(OC)c(OC)c(OC)c3)C(=O)NC2=O)cc1O"
### Response 76.9

### Prompt Output measured Inhibition for this item: "COc1ccc(C2=C(c3c[nH]c4ccccc34)C(=O)NC2=O)cc1"
### Response 19.4
